Experiment: Inhibition of human 20S immuno proteosome beta5i subunit using Suc-LLVY-AMC as substrate measured after 10 mins by fluorescence based analysis
pIC50: −log10 of the molar value.
Endpoint Label: pIC50

Below, 2 molecules whose answers are already recorded.
Smiles Text	Endpoint Label	Observed Result
COc1ccccc1NC(=O)Nc1ccc2n(c1=O)C[C@@H]1C[C@H]2CN(C(=O)c2ccc3ccccc3c2)C1	pIC50	5.25
N#Cc1cccc(NC(=O)Nc2ccc3n(c2=O)C[C@@H]2C[C@H]3CN(C(=O)c3ccc4ccccc4c3)C2)c1	pIC50	4.66

[P] O=C(Nc1ccc(Cl)cc1)Nc1ccc2n(c1=O)C[C@@H]1C[C@H]2CN(C(=O)c2ccc3ccccc3c2)C1
[Q] O=C(Nc1ccccc1)Nc1ccc2n(c1=O)C[C@@H]1C[C@H]2CN(C(=O)c2ccc3ccccc3c2)C1
Prompt line: Would you let me know which has the greater pIC50 value, P or Q ? Reply briefly: the label of your chosen item.
Response line: P
